Test system: OPM-2
Experiment: Cell Viability Assay (OPM-2 10 FBS)
Type: cell-based, human
Settings: Homo sapiens, OPM-2, 16 h, OPM-2 cells, CellTiter-Glo, read-out: OPM-2 10% FBS IC50 IP
Experimental: Cell Viability Assay (OPM-2 10 FBS) The human multiple myeloma cell line, OPM-2, was cultured in complete growth medium containing RPMI 1640 and 10% fetal bovine serum (FBS). […] Luminescence was determined using an EnVision® Multilabel plate reader 25 min after the addition of detection reagent. IC50 values were then calculated with Xlfit using a logistical 4-parameter fit model in GraphPad Prism (GraphPad Software, San Diego, Calif.) or in Genedata Screener® (Genedata, Basel, Switzerland).
parameter: IC50 (nM)
Answers are plain numbers, in nM.

compound: C[C@@H]1[C@@H](C)CCC[C@@H]([C@H]2OC[C@H](N(C)C)CO2)[C@@H]2CC[C@H]2CN2C[C@@]3(CCCc4cc(Cl)ccc43)COc3ccc(cc32)C(=O)NS1(=O)=O (relative stereo)
readout units: nM
IC50: 557

Go through the list and state IC50 for each entry.
1. CC(=O)N1C[C@@H]2O[C@H]([C@H]3CCC[C@H](C)[C@@H](C)S(=O)(=O)NC(=O)c4ccc5c(c4)N(C[C@@H]4CC[C@H]43)C[C@@]3(CCCc4cc(Cl)ccc43)CO5)O[C@@H]2C1 (stereo in doubt)
2. C[C@@H]1[C@@H](C)CCCC(C2OCC(CO)(N(C)C)CO2)[C@@H]2CC[C@H]2CN2C[C@@]3(CCCc4cc(Cl)ccc43)COc3ccc(cc32)C(=O)NS1(=O)=O (single isomer, unassigned)
3. CCN(C)[C@H]1CO[C@@H]([C@H]2CCC[C@H](C)[C@@H](C)S(=O)(=O)NC(=O)c3ccc4c(c3)N(C[C@@H]3CC[C@H]32)C[C@@]2(CCCc3cc(Cl)ccc32)CO4)OC1

1. 262
2. 178
3. 326

Each compound below has a recorded value; state its IC50.
1. CC(=O)N(C)[C@H]1CO[C@@H]([C@H]2CCC[C@H](C)[C@@H](C)S(=O)(=O)NC(=O)c3ccc4c(c3)N(C[C@@H]3CC[C@H]32)C[C@@]2(CCCc3cc(Cl)ccc32)CO4)OC1
2. CCN[C@H]1CO[C@H]([C@H]2CCC[C@H](C)[C@@H](C)S(=O)(=O)NC(=O)c3ccc4c(c3)N(C[C@@H]3CC[C@H]32)C[C@@]2(CCCc3cc(Cl)ccc32)CO4)OC1
3. C[C@@H]1[C@@H](C)CCC[C@H]([C@H]2O[C@H]3CN(C)C[C@H]3O2)[C@@H]2CC[C@H]2CN2C[C@@]3(CCCc4cc(Cl)ccc43)COc3ccc(cc32)C(=O)NS1(=O)=O (stereo in doubt)
4. C[C@@H]1[C@@H](C)CCC[C@](C)([C@H]2OC[C@@H](N(C)C)CO2)[C@@H]2CC[C@H]2CN2C[C@@]3(CCCc4cc(Cl)ccc43)COc3ccc(cc32)C(=O)NS1(=O)=O

545
155
532
1560

* * *

Please provide measured pIC50 for the entries that follow.
Molecular target: Mcl-1/Bim interaction (Homo sapiens (Human), UniProt Q07820)
Sequence (Q07820 171-327): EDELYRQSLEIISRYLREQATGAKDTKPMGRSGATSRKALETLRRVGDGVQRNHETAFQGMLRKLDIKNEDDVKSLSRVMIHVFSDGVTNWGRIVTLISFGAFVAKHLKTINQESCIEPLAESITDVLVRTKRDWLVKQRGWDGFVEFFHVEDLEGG
Experiment: Cell Free Mcl-1: Bim Affinity Assay (Mcl-1 HTRF)
Details: TR-FRET, recombinant human Mcl-1(171-327), biotin-Bim(51-76); read-out: Mel-1 HTRF IC50
Give bare numbers, as −log10 of the molar value.

compound: CN[C@H]1CO[C@@H]([C@H]2CCC[C@H](C)[C@@H](C)S(=O)(=O)NC(=O)c3ccc4c(c3)N(C[C@@H]3CC[C@H]32)C[C@@]2(CCCc3cc(Cl)ccc32)CO4)OC1 (relative stereo) [Example 41]
endpoint value: 8.10

# next compound below
Consider the compound C[C@@H]1[C@@H](C)CCC[C@@H]([C@H]2OC[C@H](N(C)C)CO2)[C@@H]2CC[C@H]2CN2C[C@@]3(CCCc4cc(Cl)ccc43)COc3ccc(cc32)C(=O)NS1(=O)=O (relative stereo) [Example 6] and give its measured pIC50.
8.68

// data source = patent US11364248B2
